Entries and their pEC50
target: glucosylceramide synthase (GCS) enzyme in Golgi preparations from human A375 malignant melanoma skin cells (Homo sapiens (Human)); assay: UDP-Glo glucosylceramide synthase biochemical assay; conditions: 1.5 μg crude golgi preparation; C6 ceramide and UDP-glucose at 2×Km; 20 h incubation at room temperature; luminescence
pEC50: −log10 of the molar value.

- Molecule: "O=C(N1CCN2CCC1CC2)n1nc(-c2ccc(F)c(Cl)c2)c2c1COC2 [Compound 50]"
  pEC50: 7.83
- Molecule: "COc1ccc(F)c(-c2nn(C(=O)N3CCN4CCC3CC4)c3c2CCC3)c1 [Compound 44]"
  pEC50: 8.77
- Molecule: "O=C(N1CCN2CCC1CC2)n1nc(-c2ccc(F)cc2)c2c1CCC2 [Compound 12]"
  pEC50: 9.52
- Molecule: "CC1(C)COc2c(-c3ccc(F)cc3)nn(C(=O)N3CCN4CCC3CC4)c21 [Compound 17]"
  pEC50: 8.00
- Molecule: "Cc1cnn(-c2nn(C(=O)N3CCN4CCC3CC4)c3c2CCC3)c1 [Compound 57]"
  pEC50: 8.04
- Molecule: "COc1ccc(-c2nn(C(=O)N3CCN4CCC3CC4)c3c2CCC3)cc1 [Compound 4]"
  pEC50: 9.70
- Molecule: "O=C(N1CCN2CCC1CC2)n1nc(-c2ccc3c(c2)CCO3)c2c1CCC2 [Compound 43]"
  pEC50: 9.30
- Molecule: "O=C(N1CCN2CCC1CC2)n1nc(-c2ccc(Cl)cn2)c2c1COCC2 [Compound 23]"
  pEC50: 8.43
- Molecule: "O=C(N1CCN2CCC1CC2)n1nc(-c2ccc(F)cc2)c2c1[C@H]1C[C@H]1C2 [Compound 11]"
  pEC50: 10.00
- Molecule: "O=C(N1CCN2CCC1CC2)n1nc(-n2cc(Cl)cn2)c2c1CCC2 [Compound 56]"
  pEC50: 8.52
- Molecule: "O=C(N1CCN2CCC1CC2)n1nc(N2CCC(F)(F)CC2)c2c1CCC2 [Compound 51]"
  pEC50: 8.15
- Molecule: "O=C(N1CCN2CCC1CC2)n1nc(-c2ccc(F)c(Cl)c2)c2c1CCOC2 [Compound 36]"
  pEC50: 9.52
- Molecule: "O=C(N1CCN2CCC1CC2)n1nc(-c2cc(Cl)c(F)cn2)c2c1COCC2 [Compound 49]"
  pEC50: 8.08
- Molecule: "CC1CCOc2c1c(-c1ccc(F)cc1)nn2C(=O)N1CCN2CCC1CC2 (stereo not drawn) [Compound 62]"
  pEC50: 8.11
- Molecule: "O=C(N1CCN2CCC1CC2)n1nc(-c2ccc(F)cc2)c2c1COCC2 [Compound 1]"
  pEC50: 8.29
- Molecule: "COc1ncc(-c2nn(C(=O)N3CCN4CCC3CC4)c3c2COCC3)cc1Cl [Compound 47]"
  pEC50: 8.08
- Molecule: "O=C(N1CCN2CCC1CC2)n1nc(-n2cc(Cl)cn2)c2c1CCOC2 [Compound 60]"
  pEC50: 8.32
- Molecule: "CC1CCc2c(-c3ccc(F)cc3)nn(C(=O)N3CCN4CCC3CC4)c2O1 (stereo not drawn) [Compound 63]"
  pEC50: 7.76

====

biological target: glucosylceramide synthase (GCS) enzyme in Golgi preparations from human A375 malignant melanoma skin cells (Homo sapiens (Human), UniProt Q16739); assay: UDP-Glo glucosylceramide synthase biochemical assay; details: 1.5 μg crude golgi preparation; C6 ceramide and UDP-glucose at 2×Km; 20 h incubation at room temperature; luminescence
Sequence (Q16739 whole entry): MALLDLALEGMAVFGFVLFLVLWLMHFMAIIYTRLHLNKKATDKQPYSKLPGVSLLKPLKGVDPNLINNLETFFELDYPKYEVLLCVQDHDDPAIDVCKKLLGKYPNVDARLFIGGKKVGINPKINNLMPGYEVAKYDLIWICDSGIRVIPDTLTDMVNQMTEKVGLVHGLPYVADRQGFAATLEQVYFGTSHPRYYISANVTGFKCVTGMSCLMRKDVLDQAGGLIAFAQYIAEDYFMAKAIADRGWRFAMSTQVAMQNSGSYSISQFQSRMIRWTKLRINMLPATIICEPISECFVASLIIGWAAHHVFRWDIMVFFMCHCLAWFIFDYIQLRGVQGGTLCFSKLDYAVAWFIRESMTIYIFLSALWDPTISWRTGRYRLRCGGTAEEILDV
pEC50: −log10 of the molar value.

- Compound: "COc1nccc(-c2nn(C(=O)N3CCN4CCC3CC4)c3c2CCC3)c1Cl"
  pEC50: 8.92
- Compound: "Cc1ccc(-c2nn(C(=O)N3CCN4CCC3CC4)c3c2CCC3)cc1"
  pEC50: 9.70
- Compound: "COc1cccc(-c2nn(C(=O)N3CCN4CCC3CC4)c3c2CCC3)c1F"
  pEC50: 9.30
- Compound: "Cn1nc(C(F)(F)F)cc1-c1nn(C(=O)N2CCN3CCC2CC3)c2c1CCC2"
  pEC50: 8.23
- Compound: "O=C(N1CCN2CCC1CC2)n1nc(-c2ccc(F)c(Cl)c2)c2c1COCC2"
  pEC50: 9.00
- Compound: "O=C(N1CCN2CCC1CC2)n1nc(-c2ccc(F)cc2)c2c1CC(O)C2 (stereo not drawn)"
  pEC50: 7.71
- Compound: "COc1cnn(-c2nn(C(=O)N3CCN4CCC3CC4)c3c2CCC3)c1"
  pEC50: 8.00
- Compound: "O=C(N1CCN2CCC1CC2)n1nc(-c2ccc(OC(F)F)c(Cl)c2)c2c1COCC2"
  pEC50: 8.54
- Compound: "Cc1ccccc1-c1nn(C(=O)N2CCN3CCC2CC3)c2c1CCOC2"
  pEC50: 8.18
- Compound: "O=C(N1CCN2CCC1CC2)n1nc(-n2cc(C(F)(F)F)cn2)c2c1[C@H]1C[C@H]1C2"
  pEC50: 10.00
- Compound: "COc1ccc(-c2nn(C(=O)N3CCN4CCC3CC4)c3c2CCOC3)cc1Cl"
  pEC50: 8.85
- Compound: "O=C(N1CCN2CCC1CC2)n1nc(-n2cc(C(F)(F)F)cn2)c2c1CCOC2"
  pEC50: 8.51
- Compound: "O=C(N1CCN2CCC1CC2)n1nc(N2CCC3(CC2)CC3)c2c1COCC2"
  pEC50: 7.74
- Compound: "O=C(N1CCN2CCC1CC2)n1nc(-n2cc(C(F)(F)F)cn2)c2c1COCC2"
  pEC50: 8.39
- Compound: "COc1ncc(-c2nn(C(=O)N3CCN4CCC3CC4)c3c2C[C@@H]2C[C@H]32)cc1Cl"
  pEC50: 10.00
- Compound: "COc1ncc(-c2nn(C(=O)N3CCN4CCC3CC4)c3c2CCOC3)cc1Cl"
  pEC50: 8.12
- Compound: "CC1(C)CCCN(c2nn(C(=O)N3CCN4CCC3CC4)c3c2CCC3)C1"
  pEC50: 8.11
- Compound: "O=C(N1CCN2CCC1CC2)n1nc(-n2nc(C(F)(F)F)ccc2=O)c2c1CCOC2"
  pEC50: 7.57
